Data origin, for the record: patent US11807625B2

Procedure text: PK of compound of Formula (Ia) after single subcutaneous dose of solution formulations in Wistar Han rats
Assay type: in vivo
Experimental setup: male, Wistar Han, rat, plasma, sc, 50 mg/kg, Wistar Han rats, SC 50 mg/kg, 400 mg/mL solution W (5.00% ethanol, 1.57% poloxamer 188), 336 h, animals #1-#3
Measured attribute: concentration at 336 h (nM)
Give a bare numeral; the unit nM is implied.

QUERY: May I ask what concentration at 336 h has been recorded for CC(C)(C#Cc1ccc(-c2ccc(Cl)c3c(NS(C)(=O)=O)nn(CC(F)(F)F)c23)c([C@H](Cc2cc(F)cc(F)c2)NC(=O)Cn2nc(C(F)(F)F)c3c2C(F)(F)[C@@H]2C[C@H]32)n1)S(C)(=O)=O ?
RESULT: 123

----------
Procedure text: PK of compound of Formula (Ia) after single subcutaneous dose of solution formulations in beagle dogs
Type: in vivo
Experimental setup: male, beagle, dog, plasma, sc, 12 mg/kg, beagle dogs, SC 12 mg/kg, 500 mg/mL solution X (5.00% ethanol, 1.91% poloxamer 188), 48.0 h, animals #1-#3
Measured attribute: concentration at 48 h (nM)
Give a bare numeral; the unit nM is implied.

QUERY: May I ask what concentration at 48 h has been recorded for CC(C)(C#Cc1ccc(-c2ccc(Cl)c3c(NS(C)(=O)=O)nn(CC(F)(F)F)c23)c([C@H](Cc2cc(F)cc(F)c2)NC(=O)Cn2nc(C(F)(F)F)c3c2C(F)(F)[C@@H]2C[C@H]32)n1)S(C)(=O)=O ?
RESULT: 39.8

----------
Procedure text: PK of compound of Formula (Ia) after single subcutaneous dose of solution formulations in beagle dogs
Type: in vivo
Experimental setup: male, beagle, dog, plasma, sc, 6 mg/kg, mean ± SD, n = 3 dogs; SC 6 mg/kg; solution V, 300 mg/mL; read-out: AUC0-2253 h
Measured attribute: AUC(0-t) (µM·h)
Give a bare numeral; the unit µM·h is implied.

QUERY: May I ask what AUC(0-t) has been recorded for CC(C)(C#Cc1ccc(-c2ccc(Cl)c3c(NS(C)(=O)=O)nn(CC(F)(F)F)c23)c([C@H](Cc2cc(F)cc(F)c2)NC(=O)Cn2nc(C(F)(F)F)c3c2C(F)(F)[C@@H]2C[C@H]32)n1)S(C)(=O)=O ?
RESULT: 109

----------
Procedure text: PK of compound of Formula (Ia) after single subcutaneous dose of solution formulations in Wistar Han rats
Type: in vivo
Experimental setup: male, Wistar Han, rat, plasma, sc, 50 mg/kg, 2352 h; individual rats; SC 50 mg/kg; solution V, 300 mg/mL
Measured attribute: concentration at 2352 h (nM)
Give a bare numeral; the unit nM is implied.

QUERY: May I ask what concentration at 2352 h has been recorded for CC(C)(C#Cc1ccc(-c2ccc(Cl)c3c(NS(C)(=O)=O)nn(CC(F)(F)F)c23)c([C@H](Cc2cc(F)cc(F)c2)NC(=O)Cn2nc(C(F)(F)F)c3c2C(F)(F)[C@@H]2C[C@H]32)n1)S(C)(=O)=O ?
RESULT: 122

----------
Procedure text: PK of compound of Formula (Ia) after single subcutaneous dose of solution formulations in beagle dogs
Assay type: in vivo
Experimental setup: male, beagle, dog, plasma, sc, 12 mg/kg, beagle dogs, SC 12 mg/kg, 400 mg/mL solution W (5.00% ethanol, 1.57% poloxamer 188), 3.00 h, animals #1-#3
Measured attribute: concentration at 3 h (nM)
Give a bare numeral; the unit nM is implied.

QUERY: May I ask what concentration at 3 h has been recorded for CC(C)(C#Cc1ccc(-c2ccc(Cl)c3c(NS(C)(=O)=O)nn(CC(F)(F)F)c23)c([C@H](Cc2cc(F)cc(F)c2)NC(=O)Cn2nc(C(F)(F)F)c3c2C(F)(F)[C@@H]2C[C@H]32)n1)S(C)(=O)=O ?
RESULT: 3.45

----------
Procedure text: PK of compound of Formula (Ia) after single subcutaneous dose of solution formulations in beagle dogs
Format: in vivo
Experimental setup: male, beagle, dog, plasma, sc, 12 mg/kg, beagle dogs, SC 12 mg/kg, 400 mg/mL solution W (5.00% ethanol, 1.57% poloxamer 188), 8.00 h, Mean n = 3
Measured attribute: concentration at 8 h (nM)
Give a bare numeral; the unit nM is implied.

QUERY: May I ask what concentration at 8 h has been recorded for CC(C)(C#Cc1ccc(-c2ccc(Cl)c3c(NS(C)(=O)=O)nn(CC(F)(F)F)c23)c([C@H](Cc2cc(F)cc(F)c2)NC(=O)Cn2nc(C(F)(F)F)c3c2C(F)(F)[C@@H]2C[C@H]32)n1)S(C)(=O)=O [compound of Formula (Ia)] ?
RESULT: 18

----------
Procedure text: PK of compound of Formula (Ia) after single subcutaneous dose of solution formulations in Wistar Han rats
Type: in vivo
Experimental setup: male, Wistar Han, rat, plasma; mean ± SD, n = 5 rats; SC 50 mg/kg; solution T, 400 mg/mL
Measured attribute: Tmax (days)
Give a bare numeral; the unit days is implied.

QUERY: May I ask what Tmax has been recorded for CC(C)(C#Cc1ccc(-c2ccc(Cl)c3c(NS(C)(=O)=O)nn(CC(F)(F)F)c23)c([C@H](Cc2cc(F)cc(F)c2)NC(=O)Cn2nc(C(F)(F)F)c3c2C(F)(F)[C@@H]2C[C@H]32)n1)S(C)(=O)=O ?
RESULT: 18.8

----------
Procedure text: PK of compound of Formula (Ia) after single subcutaneous dose of solution formulations in Wistar Han rats
Type: in vivo
Experimental setup: male, Wistar Han, rat, plasma, sc, 50 mg/kg, Wistar Han rats, SC 50 mg/kg, 400 mg/mL solution Y (water, PEG 300), 840 h, Mean n = 4
Measured attribute: concentration at 840 h (nM)
Give a bare numeral; the unit nM is implied.

QUERY: May I ask what concentration at 840 h has been recorded for CC(C)(C#Cc1ccc(-c2ccc(Cl)c3c(NS(C)(=O)=O)nn(CC(F)(F)F)c23)c([C@H](Cc2cc(F)cc(F)c2)NC(=O)Cn2nc(C(F)(F)F)c3c2C(F)(F)[C@@H]2C[C@H]32)n1)S(C)(=O)=O [compound of Formula (Ia)] ?
RESULT: 158

----------
Procedure text: PK of compound of Formula (Ia) after single subcutaneous dose of solution formulations in beagle dogs
Assay type: in vivo
Experimental setup: male, beagle, dog, plasma, sc, 12 mg/kg, 504 h; individual dogs; SC 12 mg/kg; solution T, 400 mg/mL
Measured attribute: concentration at 504 h (nM)
Give a bare numeral; the unit nM is implied.

QUERY: May I ask what concentration at 504 h has been recorded for CC(C)(C#Cc1ccc(-c2ccc(Cl)c3c(NS(C)(=O)=O)nn(CC(F)(F)F)c23)c([C@H](Cc2cc(F)cc(F)c2)NC(=O)Cn2nc(C(F)(F)F)c3c2C(F)(F)[C@@H]2C[C@H]32)n1)S(C)(=O)=O [compound of Formula (Ia)] ?
RESULT: 286

----------
Procedure text: PK of compound of Formula (Ia) after single subcutaneous dose of solution formulations in Wistar Han rats
Format: in vivo
Experimental setup: male, Wistar Han, rat, plasma, sc, 50 mg/kg, Wistar Han rats, SC 50 mg/kg, 400 mg/mL solution W (5.00% ethanol, 1.57% poloxamer 188), 336 h, Mean n = 3
Measured attribute: concentration at 336 h (nM)
Give a bare numeral; the unit nM is implied.

QUERY: May I ask what concentration at 336 h has been recorded for CC(C)(C#Cc1ccc(-c2ccc(Cl)c3c(NS(C)(=O)=O)nn(CC(F)(F)F)c23)c([C@H](Cc2cc(F)cc(F)c2)NC(=O)Cn2nc(C(F)(F)F)c3c2C(F)(F)[C@@H]2C[C@H]32)n1)S(C)(=O)=O ?
RESULT: 171

----------
Procedure text: PK of compound of Formula (Ia) after single subcutaneous dose of solution formulations in Wistar Han rats
Type: in vivo
Experimental setup: male, Wistar Han, rat, plasma, sc, 50 mg/kg, male Wistar Han rats, single SC 50 mg/kg, 400 mg/mL solution Z (3.13% poloxamer 188), mean ± SD, n = 4; read-out: AUC0-336 h
Measured attribute: AUC(0-t) (µM·h)
Give a bare numeral; the unit µM·h is implied.

QUERY: May I ask what AUC(0-t) has been recorded for CC(C)(C#Cc1ccc(-c2ccc(Cl)c3c(NS(C)(=O)=O)nn(CC(F)(F)F)c23)c([C@H](Cc2cc(F)cc(F)c2)NC(=O)Cn2nc(C(F)(F)F)c3c2C(F)(F)[C@@H]2C[C@H]32)n1)S(C)(=O)=O ?
RESULT: 49.4

----------
Procedure text: PK of compound of Formula (Ia) after single subcutaneous dose of solution formulations in Wistar Han rats
Type: in vivo
Experimental setup: male, Wistar Han, rat, plasma, sc, 50 mg/kg, 3360 h; mean, n = 3 rats; SC 50 mg/kg; solution S, 500 mg/mL
Measured attribute: concentration at 3360 h (nM)
Give a bare numeral; the unit nM is implied.

QUERY: May I ask what concentration at 3360 h has been recorded for CC(C)(C#Cc1ccc(-c2ccc(Cl)c3c(NS(C)(=O)=O)nn(CC(F)(F)F)c23)c([C@H](Cc2cc(F)cc(F)c2)NC(=O)Cn2nc(C(F)(F)F)c3c2C(F)(F)[C@@H]2C[C@H]32)n1)S(C)(=O)=O ?
RESULT: 110
